Data provenance: patent US9266835B2

TESTED_ON: UniProtKB P34972
Sequence (P34972 whole entry): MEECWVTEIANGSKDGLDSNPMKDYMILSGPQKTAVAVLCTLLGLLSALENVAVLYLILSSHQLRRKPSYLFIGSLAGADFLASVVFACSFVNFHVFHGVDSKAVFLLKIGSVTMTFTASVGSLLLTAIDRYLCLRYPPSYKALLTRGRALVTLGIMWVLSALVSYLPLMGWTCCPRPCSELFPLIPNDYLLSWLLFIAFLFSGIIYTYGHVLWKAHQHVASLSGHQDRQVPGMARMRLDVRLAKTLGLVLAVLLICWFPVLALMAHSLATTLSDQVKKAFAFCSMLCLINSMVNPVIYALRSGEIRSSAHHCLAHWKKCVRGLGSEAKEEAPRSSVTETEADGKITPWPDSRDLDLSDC
PROCEDURE_SUMMARY: CB-2 in vitro cAMP assay (HTRF), inverse agonism
SETUP_CONDITIONS: mean where tested more than once
pEC50: −log10 of the molar value.
MEASURED_ATTRIBUTE: pEC50

CCS(=O)(=O)N1CCC(Nc2cc(=O)[nH]c3ccc(C(c4ccc(Cl)cc4)c4ccc(Cl)cc4)cc23)CC1 [Compound #56] : < 5.00
CCOC(=O)N1CCC(Nc2cc(=O)[nH]c3ccc(C(c4ccc(Cl)cc4)c4nccs4)cc23)CC1 (centres unmarked) [Compound 37] : < 5.00
COCCCc1cc(C(c2ccc(Cl)cc2)c2ccc(Cl)cc2)cc2c(NC3CCN(S(=O)(=O)C(F)(F)F)CC3)cc(OC)nc12 [Compound 548] : < 4.38

Please give pEC50 for each item listed below.
1. OC(c1ccc(Cl)cc1)(c1ccc(Cl)cc1)c1ccc2nccc(/C=C/c3ccccc3)c2c1 [Compound 501]
2. O=C(O)c1ccc(CN2CCC(Nc3cc(=O)[nH]c4ccc(C(c5ccc(Cl)cc5)c5ccc(Cl)cc5)cc34)CC2)s1 [Compound 128]

< 5.00
5.01
